src = the supplement of paper PMC7877785

I'd be grateful if you could share measured self-splicing fitness (ln) for these entries.
# Protocol Description: self-splicing fitness, log relative to wild type (ln ratio); higher = more splicing; Tetrahymena group I intron in knt gene, E. coli kanamycin selection, DiMSum; sequences stand for … in CUCUCU…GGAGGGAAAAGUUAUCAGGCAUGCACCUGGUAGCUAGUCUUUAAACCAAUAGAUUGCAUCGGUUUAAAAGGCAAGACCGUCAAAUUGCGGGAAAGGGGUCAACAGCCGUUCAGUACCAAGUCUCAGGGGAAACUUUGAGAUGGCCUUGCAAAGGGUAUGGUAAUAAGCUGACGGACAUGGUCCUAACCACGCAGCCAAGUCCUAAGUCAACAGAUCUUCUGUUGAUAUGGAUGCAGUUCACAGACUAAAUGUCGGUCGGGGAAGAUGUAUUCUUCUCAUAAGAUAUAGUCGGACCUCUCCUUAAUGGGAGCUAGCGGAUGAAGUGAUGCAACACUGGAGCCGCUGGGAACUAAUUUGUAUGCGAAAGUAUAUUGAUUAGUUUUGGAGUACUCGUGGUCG;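 note: selection with 25 µg/mL kanamycin versus none on LB agar overnight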
# Experimental Conditions: 37 °C
Numbers only.

Check out these entries, answers already filled in.
Report measured self-splicing fitness (ln); entry is `GGUUAGCAAUAUUACGGUAG` -2.28

Report measured self-splicing fitness (ln); entry is `CUAAAGCAAUAUUACGUGCG` 0.0651

Report measured self-splicing fitness (ln); entry is `GGUGAGCAAUAUUACGACCU` -2.52

Consider the following items and state reported self-splicing fitness (ln) for each.
1. ACCAAGCAAUAUUACGACGA
2. UUGAAGCAAUAUUACGAAAA
3. GGGUAGCAAUAUUACGGGUU
4. UAGAAGCAAUAUUACGUGUU
5. GCCCAGCAAUAUUACGAGGA

1: -0.623; 2: 0.066; 3: -1.27; 4: -2.42; 5: -0.147
